biological target: Phosphatidylinositol 4,5-bisphosphate 3-kinase catalytic subunit alpha isoform (Homo sapiens, UniProt P42336); assay: Inhibition of recombinant PI3Kalpha (unknown origin) using PIP2:3PS as substrate preincubated for 20 mins followed by ATP addition and measured after 1 hrs by ADP-Glo reagent based assay
Sequence (P42336 whole entry, canonical isoform): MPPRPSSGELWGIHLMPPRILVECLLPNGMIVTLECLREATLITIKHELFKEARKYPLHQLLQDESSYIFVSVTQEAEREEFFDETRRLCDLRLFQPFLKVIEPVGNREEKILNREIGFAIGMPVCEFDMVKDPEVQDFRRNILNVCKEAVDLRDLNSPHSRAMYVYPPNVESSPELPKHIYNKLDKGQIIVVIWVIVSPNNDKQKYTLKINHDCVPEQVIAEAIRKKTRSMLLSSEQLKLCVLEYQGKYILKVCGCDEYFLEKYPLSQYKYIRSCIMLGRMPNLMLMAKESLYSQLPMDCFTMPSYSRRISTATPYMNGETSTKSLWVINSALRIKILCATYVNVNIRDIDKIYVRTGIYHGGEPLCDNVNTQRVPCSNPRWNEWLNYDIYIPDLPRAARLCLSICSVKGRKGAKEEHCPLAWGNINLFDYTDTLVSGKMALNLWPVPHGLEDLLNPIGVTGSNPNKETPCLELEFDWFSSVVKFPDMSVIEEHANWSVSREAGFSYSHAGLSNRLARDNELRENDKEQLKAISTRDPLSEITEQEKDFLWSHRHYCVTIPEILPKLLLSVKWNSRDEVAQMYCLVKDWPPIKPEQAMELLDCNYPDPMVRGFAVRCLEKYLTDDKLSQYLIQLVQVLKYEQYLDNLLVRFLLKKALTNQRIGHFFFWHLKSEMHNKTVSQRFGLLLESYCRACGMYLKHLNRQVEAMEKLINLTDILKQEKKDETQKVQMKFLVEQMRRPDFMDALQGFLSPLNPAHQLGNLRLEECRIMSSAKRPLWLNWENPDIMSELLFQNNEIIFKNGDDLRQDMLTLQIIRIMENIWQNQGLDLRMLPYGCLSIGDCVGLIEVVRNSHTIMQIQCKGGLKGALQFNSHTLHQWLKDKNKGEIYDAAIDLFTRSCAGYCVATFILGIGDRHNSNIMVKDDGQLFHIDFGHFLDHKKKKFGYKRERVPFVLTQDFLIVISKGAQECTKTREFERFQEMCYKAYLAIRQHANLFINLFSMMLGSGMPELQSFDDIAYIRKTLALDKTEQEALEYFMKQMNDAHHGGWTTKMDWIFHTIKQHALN
Let's look at some molecules and their measured IC50.

COMPOUND_STRING: COc1ncc(-c2ccc3ncnc(N[C@H]4CCN(C(=O)C5CCOCC5)C4)c3c2)cc1C(=O)Oc1ccc(C#N)cc1
IC50: > 1000 nM
--
COMPOUND_STRING: COC(=O)c1cc(-c2ccc3ncnc(N[C@H]4CCN(C(=O)C5CCOCC5)C4)c3n2)cnc1OC
IC50: > 1000 nM
--
COMPOUND_STRING: COc1ncc(-c2ccc3ncnc(N[C@H]4CCN(C(=O)C5CCOCC5)C4)c3n2)cc1C(=O)Oc1ccc(Cl)cc1
IC50: > 1000 nM

---

Target: Phosphatidylinositol 4,5-bisphosphate 3-kinase catalytic subunit delta isoform (Homo sapiens, UniProt O00329)
Sequence (O00329 whole entry): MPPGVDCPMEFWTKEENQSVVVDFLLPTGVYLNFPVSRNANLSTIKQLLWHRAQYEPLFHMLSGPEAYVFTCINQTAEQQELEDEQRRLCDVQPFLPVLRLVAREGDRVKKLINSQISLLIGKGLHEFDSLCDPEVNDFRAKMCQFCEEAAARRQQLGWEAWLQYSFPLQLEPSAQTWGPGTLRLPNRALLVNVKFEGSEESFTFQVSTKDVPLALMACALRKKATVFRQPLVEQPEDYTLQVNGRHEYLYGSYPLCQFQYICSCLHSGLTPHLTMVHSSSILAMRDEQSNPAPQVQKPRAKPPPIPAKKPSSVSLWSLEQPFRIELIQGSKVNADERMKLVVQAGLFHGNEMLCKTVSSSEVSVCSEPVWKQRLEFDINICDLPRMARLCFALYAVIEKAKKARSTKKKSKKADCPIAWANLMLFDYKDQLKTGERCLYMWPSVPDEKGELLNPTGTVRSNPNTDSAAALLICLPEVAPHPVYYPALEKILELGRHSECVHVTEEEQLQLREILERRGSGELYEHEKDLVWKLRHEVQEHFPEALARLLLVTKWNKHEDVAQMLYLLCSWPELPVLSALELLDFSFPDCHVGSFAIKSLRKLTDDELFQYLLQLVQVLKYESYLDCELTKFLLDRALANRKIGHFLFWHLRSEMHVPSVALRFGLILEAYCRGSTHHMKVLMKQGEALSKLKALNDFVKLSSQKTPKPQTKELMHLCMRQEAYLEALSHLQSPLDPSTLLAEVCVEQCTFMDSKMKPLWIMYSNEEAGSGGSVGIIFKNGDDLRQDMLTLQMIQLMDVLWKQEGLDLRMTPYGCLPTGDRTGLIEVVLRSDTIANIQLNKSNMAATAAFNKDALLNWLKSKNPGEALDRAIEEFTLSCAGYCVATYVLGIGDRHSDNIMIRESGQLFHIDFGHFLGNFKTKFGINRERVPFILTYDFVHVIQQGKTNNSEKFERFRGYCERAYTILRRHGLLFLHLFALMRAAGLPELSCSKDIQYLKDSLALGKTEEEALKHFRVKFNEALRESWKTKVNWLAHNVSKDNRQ
Test: Inhibition of recombinant PI3Kdelta (unknown origin) using PIP2:3PS as substrate preincubated for 20 mins followed by ATP addition and measured after 1 hrs by ADP-Glo reagent based assay
pIC50: −log10 of the molar value.
MEASURED_ATTRIBUTE: pIC50

COMPOUND_STRING: O=Cc1cc(-c2ccc3ncnc(N[C@H]4CCN(C(=O)C5CCOCC5)C4)c3c2)ccc1O
READOUT_VALUE: 8.19
//
COMPOUND_STRING: COc1ncc(-c2ccc3ncnc(N[C@H]4CCN(C(=O)C5CCOCC5)C4)c3c2)cc1C(=O)Oc1ccc([N+](=O)[O-])cc1
READOUT_VALUE: 8.18
//
COMPOUND_STRING: C#Cc1ccc(-c2ccc3ncnc(N[C@H]4CCN(C(=O)C5CCOCC5)C4)c3n2)cc1C=O
READOUT_VALUE: 8.83
//
COMPOUND_STRING: COc1ncc(-c2ccc3ncnc(N[C@H]4CCN(C(=O)C5CCOCC5)C4)c3n2)cc1C=O
READOUT_VALUE: 7.03
//
COMPOUND_STRING: O=Cc1cc(-c2ccc3ncnc(N[C@H]4CCN(C(=O)C5CCOCC5)C4)c3n2)ccc1O
READOUT_VALUE: 8.25
//
COMPOUND_STRING: COc1ncc(-c2ccc3ncnc(N[C@H]4CCN(C(=O)C5CCOCC5)C4)c3n2)cc1C(=O)Oc1ccc(Cl)cc1Cl
READOUT_VALUE: 8.85
//
COMPOUND_STRING: COc1ncc(-c2ccc3ncnc(N[C@H]4CCN(C(=O)C5CCOCC5)C4)c3n2)cc1C(=O)Oc1ccc(C)cc1
READOUT_VALUE: 8.21
//
COMPOUND_STRING: COc1ncc(-c2ccc3ncnc(N[C@H]4CCN(C(=O)C5CCOCC5)C4)c3c2)cc1C(=O)Oc1ccc(C)cc1
READOUT_VALUE: 8.61
//
COMPOUND_STRING: COc1ncc(-c2ccc3ncnc(N[C@H]4CCN(C(=O)C5CCOCC5)C4)c3n2)cc1C(=O)Oc1ccc(F)cc1F
READOUT_VALUE: 8.50
